Reference source: the supplement of paper PMC10567573

B1: KRT34 (parent)
chain: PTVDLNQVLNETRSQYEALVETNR

# Variants of: B1
# Assay Explanation: protein stability index of a GFP-peptide fusion (GPS, HEK-293T) (PSI 1-6); higher = more stable;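 further: lentivirally expressed fusions sorted by FACS into six bins by GFP to DsRed ratio, PSI derived from sequencing read proportions per bin multiplied by bin number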
# Reported Conditions: c terminus: a fixed tail appended
Experimental Readout: protein stability index

Biopolymer Sequence	Experimental Readout	Result Number
PTVDLNQVLNDTRSQYEALVETNR [E11D]	protein stability index	3.81
PTVDLRQVLNETRSQYEALVETNR [N6R]	protein stability index	3.9
PTVILNQVLNETRSQYEALVETNR [D4I]	protein stability index	3.58
PTVDLNQVLNETRSQYEALVEINR [T22I]	protein stability index	1.68
PTVDLNQVLNETRSQYEALSETNR [V20S]	protein stability index	3.98
PTVDLNQVLNETRSQYEWLVETNR [A18W]	protein stability index	3.5
PTVDLNQVLNETKSQYEALVETNR [R13K]	protein stability index	3.31
PTVDRNQVLNETRSQYEALVETNR [L5R]	protein stability index	4.53
STVDLNQVLNETRSQYEALVETNR [P1S]	protein stability index	3.82
PTVDDNQVLNETRSQYEALVETNR [L5D]	protein stability index	4.67
PTVDLNQVLSETRSQYEALVETNR [N10S]	protein stability index	3.46
PTVDLNQVLNETRSQYEAVVETNR [L19V]	protein stability index	4.44
PTVDLNQVLNETRSQYELLVETNR [A18L]	protein stability index	3.66
PTVDLNQVLNETRSQYEALVETNP [R24P]	protein stability index	4.58
PTVDLNQVKNETRSQYEALVETNR [L9K]	protein stability index	4.45
PTVDLNQVLNERRSQYEALVETNR [T12R]	protein stability index	4.28
PTVDLNQVLNETGSQYEALVETNR [R13G]	protein stability index	4.52
PTVDLMQVLNETRSQYEALVETNR [N6M]	protein stability index	1.9
PTVDLNQVLNETRSQYEALVETNT [R24T]	protein stability index	3.8
PTVDLNQVLNETRGQYEALVETNR [S14G]	protein stability index	3.56
PTVDLNQVLNETRSQYEALVETNA [R24A]	protein stability index	3.51
PTVDLNQVLNETRSQYEALFETNR [V20F]	protein stability index	3.64
PTVDLHQVLNETRSQYEALVETNR [N6H]	protein stability index	2.92
PTIDLNQVLNETRSQYEALVETNR [V3I]	protein stability index	3.7
PTGDLNQVLNETRSQYEALVETNR [V3G]	protein stability index	4.15
